These data points were gathered from patent US20250152585A1.

Target: full length N-terminally FLAG-tagged PARP1 (Homo sapiens, UniProt P09874)
Sequence (P09874 whole entry): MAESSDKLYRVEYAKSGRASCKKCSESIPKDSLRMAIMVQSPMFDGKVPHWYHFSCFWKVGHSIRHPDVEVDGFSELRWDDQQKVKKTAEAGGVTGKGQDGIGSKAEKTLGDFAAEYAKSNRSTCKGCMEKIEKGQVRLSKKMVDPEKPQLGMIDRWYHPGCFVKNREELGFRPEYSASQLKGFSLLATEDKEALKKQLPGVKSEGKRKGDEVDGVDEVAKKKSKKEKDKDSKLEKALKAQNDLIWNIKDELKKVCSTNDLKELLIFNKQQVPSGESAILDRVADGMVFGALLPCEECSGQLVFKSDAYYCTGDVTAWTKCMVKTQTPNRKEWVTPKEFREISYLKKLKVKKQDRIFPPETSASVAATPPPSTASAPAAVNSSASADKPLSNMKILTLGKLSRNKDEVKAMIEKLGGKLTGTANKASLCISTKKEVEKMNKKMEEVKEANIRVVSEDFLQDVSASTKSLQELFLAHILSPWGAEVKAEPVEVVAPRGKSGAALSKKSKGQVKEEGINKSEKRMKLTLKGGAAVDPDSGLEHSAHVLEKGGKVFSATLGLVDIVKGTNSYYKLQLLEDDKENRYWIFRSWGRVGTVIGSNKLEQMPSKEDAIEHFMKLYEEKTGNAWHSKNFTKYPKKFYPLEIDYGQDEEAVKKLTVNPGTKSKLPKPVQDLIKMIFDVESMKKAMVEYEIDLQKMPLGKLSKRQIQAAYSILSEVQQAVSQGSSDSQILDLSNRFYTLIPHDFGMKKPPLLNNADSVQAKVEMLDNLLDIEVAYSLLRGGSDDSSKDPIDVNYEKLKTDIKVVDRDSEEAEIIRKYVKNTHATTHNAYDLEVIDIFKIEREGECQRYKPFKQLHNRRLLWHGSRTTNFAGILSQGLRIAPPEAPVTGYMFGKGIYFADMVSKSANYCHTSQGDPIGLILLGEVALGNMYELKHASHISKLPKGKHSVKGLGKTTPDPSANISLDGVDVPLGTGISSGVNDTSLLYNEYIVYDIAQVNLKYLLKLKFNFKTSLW
Assay: PARP1 biochemical DELFIA assay (auto-PARylation)
Design: recombinant full length human N-terminally FLAG-tagged PARP1
Conditions: binned IC50, PARP1 biochemical DELFIA assay
pIC50: −log10 of the molar value.

[
  {
    "molecule": "CNC(=O)c1ccc(N2CCC(N3CCC(c4cc5[nH]nc(C(F)(F)F)c5c(=O)[nH]4)C3)CC2)cn1 (single isomer, unassigned) [Compound 194a]",
    "pIC50": "7.00 to 8.00"
  },
  {
    "molecule": "O=c1[nH]c(CC2CCCN(C3CCC(F)(F)CC3)C2)nc2ccccc12 (single isomer, unassigned) [Compound 11a]",
    "pIC50": "5.00 to 6.00"
  },
  {
    "molecule": "CNC(=O)c1ccc(N2CCC(N3CCC(c4cc5cccc(F)c5c(=O)[nH]4)C3)CC2)cn1 (single isomer, unassigned) [Compound 136b]",
    "pIC50": "> 8.00"
  },
  {
    "molecule": "CNC(=O)c1ccc(N2CCC(N3CCC(c4cc5[nH]nc(C(F)(F)F)c5c(=O)[nH]4)C3)CC2)cn1 (single isomer, unassigned) [Compound 194b]",
    "pIC50": "> 8.00"
  },
  {
    "molecule": "CNC(=O)c1ccc(N2CCC(N3CCC(c4cc5ccc(F)cc5c(=O)[nH]4)C3)CC2)c(C)n1 (single isomer, unassigned) [Compound 196a]",
    "pIC50": "> 8.00"
  },
  {
    "molecule": "CNC(=O)c1ccc(N2CCC(N3CCC(c4nc5ccccc5c(=O)[nH]4)C3)CC2)cn1 (single isomer, unassigned) [Compound 10b]",
    "pIC50": "> 8.00"
  },
  {
    "molecule": "CCc1ccc(C2CCN(C3CCN(c4ccc(C(=O)NC)nc4C)CC3)C2)[nH]c1=O (single isomer, unassigned) [Compound 133b]",
    "pIC50": "7.00 to 8.00"
  },
  {
    "molecule": "CNC(=O)c1ccc(N2CCC(N3CCC(c4nc5c(C)nn(C)c5c(=O)[nH]4)C3)CC2)cn1 (racemic) [Compound 143rac]",
    "pIC50": "7.00 to 8.00"
  },
  {
    "molecule": "CNC(=O)c1ccc(N2CCC(N3CCCC(Cc4nc5ccccc5c(=O)[nH]4)C3)CC2)cn1 (single isomer, unassigned) [Compound 57b]",
    "pIC50": "6.00 to 7.00"
  },
  {
    "molecule": "CNC(=O)c1ccc(N2CCC(N3CCC(c4nc5c(Cl)cccc5c(=O)[nH]4)C3)CC2)cn1 (single isomer, unassigned) [Compound 52a]",
    "pIC50": "7.00 to 8.00"
  },
  {
    "molecule": "O=c1[nH]c(C2CCN(C3CCN(c4ccc(F)cc4F)CC3)C2)nc2ccccc12 (single isomer, unassigned) [Compound 107a]",
    "pIC50": "7.00 to 8.00"
  },
  {
    "molecule": "CNC(=O)c1ccc(N2CCC(N3CCC(c4cc5cccc(F)c5c(=O)[nH]4)C3)CC2)nn1 (single isomer, unassigned) [Compound 209b]",
    "pIC50": "7.00 to 8.00"
  }
]
